percentage damage caused to the plant, AMARE values, listed per item
tested on: Amaranthus retoflexus (AMARE); assay: Pre-emergence herbicide glasshouse test; format: in vivo; conditions: 250 g/ha, evaluated after 13 days, five-point scale
readout: percentage damage caused to the plant, AMARE

{"columns": ["molecule", "obs value"],
 "data": [
  ["CO/N=C/CCc1nc(C(F)(F)F)nc2cccc(Oc3ncc(Cl)cn3)c12", "5 (5=81-100%)"],
  ["O=C(c1ccc(Cl)cn1)c1nc(C(F)(F)F)nc2cccc(Oc3ncc(Cl)cn3)c12", "5 (5=81-100%)"],
  ["CN(C)/C=C/c1nc(C(F)(F)F)nc2cccc(Oc3ncc(Cl)cn3)c12", "2 (2=21-40%)"],
  ["FC(F)(F)c1nc(CC=NOCC2CC2)c2c(Oc3ncc(Cl)cn3)cccc2n1", "1 (1=0-20%)"],
  ["FC(F)(F)c1nc(-c2ncccn2)c2c(Oc3ncc(Cl)cn3)cccc2n1", "1 (1=0-20%)"],
  ["O=CCCc1nc(C(F)(F)F)nc2cccc(Oc3ncc(Cl)cn3)c12", "2 (2=21-40%)"],
  ["COCCCc1nc(C(F)(F)F)nc2cccc(Oc3ncc(Cl)cn3)c12", "5 (5=81-100%)"],
  ["N#CCCc1nc(C(F)(F)F)nc2cccc(Oc3ncc(Cl)cn3)c12", "5 (5=81-100%)"],
  ["CCO/N=C/CCc1nc(C(F)(F)F)nc2cccc(Oc3ncc(Cl)cn3)c12", "5 (5=81-100%)"],
  ["Cc1ncc(-c2nc(C(F)(F)F)nc3cccc(Oc4ncc(Cl)cn4)c23)cn1", "2 (2=21-40%)"],
  ["O=C(c1ccc(Br)cn1)c1nc(C(F)(F)F)nc2cccc(Oc3ncc(Cl)cn3)c12", "4 (4=61-80%)"],
  ["FC(F)(F)c1nc(CBr)c2c(Oc3ncc(Cl)cn3)cccc2n1", "5 (5=81-100%)"],
  ["OCC(O)CCc1nc(C(F)(F)F)nc2cccc(Oc3ncc(Cl)cn3)c12 (centres unmarked)", "1 (1=0-20%)"],
  ["Cn1nc(-c2nc(C(F)(F)F)nc3cccc(Oc4ncc(Cl)cn4)c23)cc1C(F)F", "1 (1=0-20%)"],
  ["FC(F)(F)c1nc(CCC2CCCCC2)c2c(Oc3ncc(Cl)cn3)cccc2n1", "3 (3=41-60%)"],
  ["CON=C(C)c1nc(C(F)(F)F)nc2cccc(Oc3ncc(Cl)cn3)c12", "1 (1=0-20%)"],
  ["ON=CCCc1nc(C(F)(F)F)nc2cccc(Oc3ncc(Cl)cn3)c12", "4 (4=61-80%)"]
]}
